- protocol: Cytotoxicity against human HT-1080 cells assessed as cell viability at 25 uM measured after 24 hrs by CCK-8 assay relative to control
- Type: toxicity, cell-based
- assaySetup: read-out: Activity
Reported viability at 24 h, 25 µM values follow for various compounds

Please look at this compound and report its viability at 24 h, 25 µM: CC(C)C[C@H](N)C(=O)Nc1ccc(COc2ccc3c(c2)OC2=C(/C=C/C4=[N+](CCCCCC(=O)NC[C@H]5O[C@@H](O[C@@H]6[C@@H](O)[C@H](N)C[C@H](N)[C@H]6O[C@H]6O[C@H](CN)[C@@H](O)[C@H](O)[C@H]6N)[C@H](O)[C@@H]5O[C@H]5O[C@@H](CN)[C@@H](O)[C@H](O)[C@H]5N)c5ccccc5C4(C)C)CCCC2=C3)cc1 > 80%

Provide measured viability at 24 h, 25 µM value, entry: CC1(C)C(/C=C/C2=C3Oc4cc(O)ccc4C=C3CCC2)=[N+](CCCCCC(=O)NC[C@H]2O[C@@H](O[C@@H]3[C@@H](O)[C@H](N)C[C@H](N)[C@H]3O[C@H]3O[C@H](CN)[C@@H](O)[C@H](O)[C@H]3N)[C@H](O)[C@@H]2O[C@H]2O[C@@H](CN)[C@@H](O)[C@H](O)[C@H]2N)c2ccccc21 > 80%
